system: PPARg:RXRa IVT, anti-PPARg (NR concentration 270 nM, RXRa partner concentration 90 nM); test: PBM binding z-score (relative to random genomic background probes); higher = stronger binding; sequences stand for … in GC…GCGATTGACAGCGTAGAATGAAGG
Assay endpoint: PBM binding z-score
Form: value (number only, do not type unit).

Find the measured PBM binding z-score: item "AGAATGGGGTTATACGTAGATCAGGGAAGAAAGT" , target or system PPARg:RXRa IVT, anti-PPARg (NR concentration 270 nM, RXRa partner concentration 90 nM). 2.95

Find the measured PBM binding z-score: item "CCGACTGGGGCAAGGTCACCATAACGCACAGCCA" , target or system PPARg:RXRa IVT, anti-PPARg (NR concentration 270 nM, RXRa partner concentration 90 nM). 4.62

Find the measured PBM binding z-score: item "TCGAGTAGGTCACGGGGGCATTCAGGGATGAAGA" , target or system PPARg:RXRa IVT, anti-PPARg (NR concentration 270 nM, RXRa partner concentration 90 nM). 7.67

Find the measured PBM binding z-score: item "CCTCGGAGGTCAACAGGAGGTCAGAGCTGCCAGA" , target or system PPARg:RXRa IVT, anti-PPARg (NR concentration 270 nM, RXRa partner concentration 90 nM). 4.76

Find the measured PBM binding z-score: item "TATACAGGGTCAAAGGTCAGAGTACGAATGTCGA" , target or system PPARg:RXRa IVT, anti-PPARg (NR concentration 270 nM, RXRa partner concentration 90 nM). 6.32

Find the measured PBM binding z-score: item "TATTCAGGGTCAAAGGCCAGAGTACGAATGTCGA" , target or system PPARg:RXRa IVT, anti-PPARg (NR concentration 270 nM, RXRa partner concentration 90 nM). 5.28

Find the measured PBM binding z-score: item "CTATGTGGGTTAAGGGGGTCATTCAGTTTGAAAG" , target or system PPARg:RXRa IVT, anti-PPARg (NR concentration 270 nM, RXRa partner concentration 90 nM). 7.71

Find the measured PBM binding z-score: item "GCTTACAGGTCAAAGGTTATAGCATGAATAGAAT" , target or system PPARg:RXRa IVT, anti-PPARg (NR concentration 270 nM, RXRa partner concentration 90 nM). 6.3

Find the measured PBM binding z-score: item "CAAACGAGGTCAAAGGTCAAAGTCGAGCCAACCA" , target or system PPARg:RXRa IVT, anti-PPARg (NR concentration 270 nM, RXRa partner concentration 90 nM). 8.38

Find the measured PBM binding z-score: item "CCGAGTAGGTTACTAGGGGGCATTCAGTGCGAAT" , target or system PPARg:RXRa IVT, anti-PPARg (NR concentration 270 nM, RXRa partner concentration 90 nM). 4.9

Find the measured PBM binding z-score: item "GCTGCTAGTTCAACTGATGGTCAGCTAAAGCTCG" , target or system PPARg:RXRa IVT, anti-PPARg (NR concentration 270 nM, RXRa partner concentration 90 nM). -0.512

Find the measured PBM binding z-score: item "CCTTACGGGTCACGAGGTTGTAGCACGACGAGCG" , target or system PPARg:RXRa IVT, anti-PPARg (NR concentration 270 nM, RXRa partner concentration 90 nM). 4.99
